Entries and their measured GI50 follow.
Tested on: UO-31
Experiment: NCI tumour cell line growth inhibition, 48 h
The source made the active and inactive calls. No stated cut-off is given here; in the data, active = GI50 up to about 1.1 µM and inactive = higher.

| Compound | GI50 |
| --- | --- |
| CCCNC(=O)OCc1c(COC(=O)NCCC)c(-c2ccc(Cl)c(Cl)c2)n2c1CCC2 | 2.86 µM (inactive) |
| Clc1ccccc1C(n1ncc2ccccc21)n1ncc2ccccc21 | 31.3 µM (inactive) |
| O=c1cc(-c2ccccc2F)[nH]c2ccc(N3CCCC3)cc12 | 0.00274 µM (active) |

# value of GI50, UO-31, item Cc1nnc2nc(-c3ccc(Cl)cc3Cl)cc(-c3ccc(Cl)cc3)n12 = 24.4 µM (inactive)

---

Tested on: SW-620
Experiment: NCI tumour cell line growth inhibition, 48 h
Active and inactive are the calls of the source. Rule as the data show it: active = GI50 up to about 1.1 µM and inactive = higher.
Thanks in advance; please answer with one of these: TRUE = active, FALSE = inactive

A selection of reference data follows.
| Molecule | Label value |
| --- | --- |
| COc1ccc(C2=C(OC(C)=O)c3cccn3-c3ccccc3S2)cc1 | FALSE |
| O=C1CCCC[C@H]1[C@H]1CCC[C@@H]([C@H]2CCCCC2=O)C1=O | FALSE |
| O=C1N=CN=C2C=CC(Cl)=C(I)C12 (stereo not given) | FALSE |
| Cc1cc2nc3c(C#N)c4c(c(Nc5ccc(Cl)cc5)n3c2cc1C)CCC4 | FALSE |

# outcome recorded in this test, key = CCOC(=O)/C(SC#N)=C(/N)N1CCCC1
FALSE

# outcome recorded in this test, key = COc1cc(CN[C@H]2CCc3cc(OC)c(OC)c(OC)c3-c3ccc(SC)c(=O)cc32)cc(OC)c1
TRUE

# outcome recorded in this test, key = CSS(C)(=O)=O
FALSE

# outcome recorded in this test, key = N#Cc1nnn(-c2ccc(Br)cc2)c1O
FALSE

# outcome recorded in this test, key = COc1cc(C(=O)C2CC3(CCC2(O)c2cc(OC)c(OC)c(OC)c2)CC(=O)Nc2ccccc2C3=O)cc(OC)c1OC (stereo not given)
FALSE

# outcome recorded in this test, key = CO[C@H]1C[C@H](O[C@H]2CC[C@@]3(C)[C@H](CC[C@@H]4[C@@H]3CC[C@]3(C)[C@@H](C5=CC(=O)OC5)CC[C@]43O)C2)O[C@H](C)[C@H]1O
TRUE

---

System: SK-OV-3
Assay: NCI tumour cell line growth inhibition, 48 h
Calls of active or inactive are those of the source. Cut-off read from the data, not from the text of the source: active = GI50 up to about 1.1 µM and inactive = higher.
Quantity kind: GI50

| Compound | GI50 |
| --- | --- |
| CCOC(=O)CSC(=O)NCCCl | > 100 µM (inactive) |
| CN1Cc2cc3c(cc2-c2ccccc21)OCO3 | > 10 µM (inactive) |
| NCC(=O)N[C@H]1c2ccsc2/C(=N/O)[C@H]1O | > 100 µM (inactive) |
| CCc1ccc(COC(=O)C2=C(C)NC(C)=C(C(=O)OCc3ccc(CC)cn3)C2C2=COCCO2)nc1 | 16.6 µM (inactive) |
| Nc1nc(Cl)cc(NCC2(CCO)CCC2)n1 | > 100 µM (inactive) |

GET /value?item= CC1OCC2OC(C)OC(C3C4=C(CC(C)(C)CC4=O)OC4=C3C(=O)CC(C)(C)C4)C2O1 (configuration not stated) &field=GI50 returns > 100 µM (inactive)

GET /value?item= OCCN1c2ccccc2Sc2ccccc21 &field=GI50 returns > 10 µM (inactive)

---

Entries and their measured GI50 follow.
Test system: SW-620
Test: NCI tumour cell line growth inhibition, 48 h
The source made the active and inactive calls. No stated cut-off is given here; in the data, active = GI50 up to about 1.1 µM and inactive = higher.

Sample records with GI50:
| Compound | Value observed |
| --- | --- |
| OCCN1CCN(CCO)Cc2ccccc2OCCOc2ccccc2C1 | > 100 µM (inactive) |
| Cc1nc2ccccc2n1CCc1nc2ccccc2[nH]1 | > 100 µM (inactive) |

Moving on to another compound below.
GET /value?item= C=CC(C)CCC(C/C=C(\C)CCCC(C)C)C(=C)CCCC(C)C (stereo not drawn) &field=GI50 returns > 100 µM (inactive)

---

Test system: MDA-MB-231
Test: NCI tumour cell line growth inhibition, 48 h
Calls of active or inactive are those of the source. No stated cut-off is given here; in the data, active = GI50 up to about 1.1 µM and inactive = higher. Starred links: 1 amine or outer side, 2 acyl side, 3 side chain; linkers in the order of their positions; H or OH if unused. Non-standard residues stand in square brackets, D forms with d. Residues, ends and D or L forms follow the SMILES beside them. *: point of attachment. X47 = CCC(=O)CC1CC(C)CC(C(=O)[*:2])N1[*:1]; X46 = CCCCCCCCC(C)C(=O)*; Aib = CC(C)(N)C(=O)O; X48 = CC(CN(C)CCO)N*
Thanks in advance; please answer with one of these: 1 (active), -1 (inactive)

A selection of reference data follows.
| Compound | Label value |
| --- | --- |
| CN1C(=O)[C@@H]2[C@@H]3c4ccccc4N(S(=O)(=O)C(F)(F)F)[C@@H]3c3[nH]c4ccccc4c3[C@@H]2C1=O | -1 |
| CN(C)N1C(=O)S/C(=C\c2ccc([N+](=O)[O-])cc2)C1=O | -1 |
| CC1(C)CC(=O)C(=CNc2nc(-c3ccccc3)cs2)C(=O)C1 | -1 |
| Sc1ncnc2c1ncn2Cc1ccco1 | -1 |
| CS(=O)(=O)OCCCNCCCOS(C)(=O)=O | -1 |

# outcome recorded in this test, key = O=C1O/C(=C/c2ccccc2)C(c2ccccc2)=C1O
-1

# outcome recorded in this test, key = N=C(N)NS(=O)(=O)c1ccc(NCc2c3ccccc3nc3ccccc23)cc1
-1

# outcome recorded in this test, key = CCCCCCCCC(C)C(=O)N1CCCC1C(=O)N1C(CC(=O)CC)CC(C)CC1C(=O)NC(C)C(=O)NC(C)(C)C(=O)NC(C)(C)C(=O)NC(C(=O)NC(C)C(=O)NC(C)(C)C(=O)NC(C)(C)C(=O)NC(C)CN(C)CCO)C(C)CC (stereo unspecified) (X46-P[X47]A[Aib][Aib]IA[Aib][Aib]-X48; configuration not given here)
1

# outcome recorded in this test, key = CCOC(=O)C(C/C=C/CO)N(C)C(=O)OC(C)(C)C (stereo unspecified)
-1

# outcome recorded in this test, key = Oc1ccc(C(=C(Br)c2ccccc2)c2ccc(O)cc2)cc1
-1

# outcome recorded in this test, key = CC(C)(C)O/N=C/c1cc(NC(=S)c2ccsc2)ccc1Cl
-1

---

Test system: HCC 2998
Test: NCI tumour cell line growth inhibition, 48 h
Activity calls are given as the source filed them. Cut-off read from the data, not from the text of the source: active = GI50 up to about 1.1 µM and inactive = higher.
Thanks in advance; please answer with one of these: yes (1) for active, no (0) for inactive

A selection of reference data follows.
| Molecule | Target of assay | Label value |
| --- | --- | --- |
| COC(=O)[C@]1(C)CCC[C@@]2(C)C1CCC1=CC3(C(C)C)CCC12OO3 (some centres undefined) | HCC 2998 | no (0) |
| Clc1cc2nsnc2c(Cl)n1 | HCC 2998 | no (0) |
| OC[P+](CO)(CO)C12CC3CC(CC(C3)C1)C2 | HCC 2998 | no (0) |

# outcome recorded in this test, key = Cc1ccc2c(c1)C(=O)C1(C2)Cc2ccc(C)cc2C1=O
no (0)

# outcome recorded in this test, key = CN1Cc2cc3c(cc2-c2ccccc21)OCO3
no (0)

# outcome recorded in this test, key = CC(=O)Nc1ccc(C(=O)NN2C(=O)C(Cl)C2c2cccc([N+](=O)[O-])c2)cc1 (centres undefined)
no (0)

# outcome recorded in this test, key = COC(=O)CNS(=O)(=O)c1ccc(-c2c3nc(c(-c4ccc(S(=O)(=O)NCC(=O)OC)cc4)c4ccc([nH]4)c(-c4ccc(S(=O)(=O)NCC(=O)OC)cc4)c4nc(c(-c5ccc(S(=O)(=O)NCC(=O)OC)cc5)c5ccc2[nH]5)C=C4)C=C3)cc1
no (0)

# outcome recorded in this test, key = Cc1ccccc1C1=[N+]([O-])c2ccc(Cl)cc2C1=O
no (0)

# outcome recorded in this test, key = CC12CC3CC(C1)CC(N=[N+]=[N-])(C3)C2
no (0)

# outcome recorded in this test, key = Cc1ccc2c(O)cc(-c3sccc3C)nc2n1
yes (1)

# outcome recorded in this test, key = O=[N+]([O-])c1ccc(Sc2c3ccccc3nc3ccccc23)cn1
no (0)

---

Tested on: RXF 393
Experiment: NCI tumour cell line growth inhibition, 48 h
The source made the active and inactive calls. Rule as the data show it: active = GI50 up to about 1.1 µM and inactive = higher.
Entries and their measured GI50 follow.

| Compound | Target of assay | GI50 |
| --- | --- | --- |
| COc1cc(OC)cc(Oc2nc3ccc(C(F)(F)F)cc3nc2-c2ccccc2)c1 | RXF 393 | > 100 µM (inactive) |
| CN(C)Cc1ccc(C(C)(C)C)cc1-c1cc(C(C)(C)C)ccc1CN(C)C | RXF 393 | 97.1 µM (inactive) |
| CN(C)c1cccc(/C=C(\C#N)c2ccccc2)c1 | RXF 393 | 0.706 µM (active) |

GET /value?item= COc1cc2c(c(OC)c1OC)-c1ccc(SC)c(=O)cc1C(CC(=O)Oc1ccccc1F)C2 (stereo unspecified) &field=GI50 returns < 0.0075 µM (active)

GET /value?item= CCc1nc2c(c(N(C)C)c1C(=O)OC)CCc1ccccc1-2 &field=GI50 returns 31.2 µM (inactive)

GET /value?item= Oc1c(N2CCOCC2)cc(-c2cc(N3CCOCC3)c(O)c3ccccc23)c2ccccc12 &field=GI50 returns 1.56 µM (inactive)

GET /value?item= COC(=O)C(=O)Nc1cc2c3c(c1)Oc1cccc4c1C3(C)c1c(cccc1O2)O4 &field=GI50 returns 18.7 µM (inactive)

GET /value?item= C/C(=C\CO)CC/C=C(\C)CNc1ccc([N+](=O)[O-])cc1 &field=GI50 returns > 100 µM (inactive)

GET /value?item= N#Cc1c(-c2ccc([N+](=O)[O-])cc2)c(C#N)c(=O)n(NS(=O)(=O)c2ccccc2)c1O &field=GI50 returns > 100 µM (inactive)

GET /value?item= CN1C(=S)CSc2ccccc21 &field=GI50 returns > 100 µM (inactive)

GET /value?item= CCOC(=O)/C(SC#N)=C(/N)N1CCCC1 &field=GI50 returns > 100 µM (inactive)
